# study-system: recombinant human TFPI (tissue factor pathway inhibitor) (human, UniProt P10646 29-304)
# test-details: cell-based or functional assay
property-label: FXa assay % of FXa alone, 5 nM Ab, 10 nM TFPI (%)
Give just the numeric value; % need not be written.

GET /values?readout=FXa assay % of FXa alone, 5 nM Ab, 10 nM TFPI&item= clone 10 (antibody, V domains shown) VH: EVQLVESGGGLVKPGGSLRLSCAASGFTFSSYAMNWVRQAPGKGLEWVSTITTGGSYTYYADSVQGRFTISRDNAKNSLYLQMNSLRAEDTAVYYCARQDGNFLMDYWGQGTLVTVSS VL: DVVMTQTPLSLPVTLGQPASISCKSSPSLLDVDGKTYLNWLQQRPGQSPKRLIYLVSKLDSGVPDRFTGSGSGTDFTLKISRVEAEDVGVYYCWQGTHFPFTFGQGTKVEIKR
5.1
